# assay-protocol: Pharmacokinetic study in mice: plasma clearance of 125I-labeled protein, SEC of plasma
# Format: in vivo
# test-parameters: tail vein injection, bi-exponential fit
quantity-measured: α Phase Half-life (min)
Numbers only, in min.

Study these solved cases before continuing.
>>> reading("PEG30-DX-890-6.0: DX-890 conjugated to a 30 kDa PEG moiety (MPEG-SPA30K, conjugated at pH 6), mono-PEGylated (EACNLPIVRGPCIAFFPRWAFDAVKGKCVLFPYGGCQGNGNKFYSEKECREYCGVP)")
19.2
>>> reading("DX-890: 56 amino acid Kunitz domain polypeptide derived from ITI-D2, inhibitor of human neutrophil elastase, produced in Pichia pastoris (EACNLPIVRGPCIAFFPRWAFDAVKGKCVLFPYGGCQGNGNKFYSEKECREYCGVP)")
1.0
>>> reading("PEG20-DX-890-6.0: DX-890 conjugated to a 20 kDa PEG moiety (MPEG-SPA20K, conjugated at pH 6), mono-PEGylated (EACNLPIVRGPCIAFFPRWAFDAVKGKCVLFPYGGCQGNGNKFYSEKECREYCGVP)")
16.7

Now look at this entry.
Exercise: Which α Phase Half-life reading was recorded for the substance PEG20-DX-890-7.4: DX-890 conjugated to a 20 kDa PEG moiety (MPEG-SPA20K, conjugated at pH 7.4), mono-PEGylated (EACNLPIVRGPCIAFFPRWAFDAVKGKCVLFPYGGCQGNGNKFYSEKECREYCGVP) ?
Key: 25.0
